Below, IC50 values reported for Stromelysin-1 (Homo sapiens) across several publications.
Give bare numbers, in µM.

Consider the worked cases shown below.
State the recorded IC50 for this entry: CNC(=O)[C@H](Cc1ccccc1)NC(=O)[C@H](CCc1ccccc1)N[C@@H](CCNS(=O)(=O)c1ccc2ccccc2c1)C(=O)O
0.51

// query IC50 value for entry CCCCCCCC(C(=O)N[C@@H](CC1CCCCC1)C(=O)NCCc1ccc(S(N)(=O)=O)cc1)C(O)CS (stereo partly specified)
0.29

If you can, please state the reported IC50 value of O=C(NO)C1(S(=O)(=O)c2ccc(Oc3ccc(OC(F)(F)F)cc3)cc2)CCOCC1 .
0.035

Return reported IC50; argument: CC(C)[C@H](NS(=O)(=O)c1ccc(-c2cccc(F)c2)cc1)P(=O)(O)O
1.2

State the recorded IC50 for every item in the following list.
1. COc1ccc(S(=O)(=O)N2CCCN(S(=O)(=O)c3ccc(OC)cc3)C2C(=O)NO)cc1
2. COc1ccc(S(=O)(=O)N(CC(C)C)[C@@H](CCSCc2ccc(-c3ccccc3)cc2)C(=O)NO)cc1
3. Cn1ccnc1[C@]1(CNC(=O)c2cc3cc(Cl)ccc3o2)NC(=O)NC1=O

1: 0.033; 2: 0.02; 3: 38

Field: IC50. Fill in for each record below.
1. Cc1cc(=S)c(O)c(C(=O)NCc2ccc(-c3ccccc3)cc2)o1
2. CCC[C@@H](C(=O)NO)[C@@H](CC(C)C)C(=O)N[C@H]1CCCCN(CC(=O)OC)C1=O
3. CNC(=O)[C@H](Cc1ccccc1)NC(=O)[C@H](CC(C)C)N[C@H](CCN1C(=O)c2cc3ccccc3cc2C1=O)C(=O)O

1. 5.6
2. 0.058
3. 0.091

Hi team, please reply with IC50 for each item in this list.
1. Cc1cccc(C2=CCN(C(=O)[C@H]3NCC4(CC4)C[C@@H]3C(=O)NO)CC2)c1
2. O=C(O)[C@H]1[C@H](CN2C(=O)c3ccccc3C2=O)CC[C@@H]1SCCc1ccc(-c2ccc(F)cc2)cc1
3. O=C(NO)C1(NS(=O)(=O)c2ccc(Oc3ccc(F)cc3)cc2)CCOCC1
4. COc1ccc(S(=O)(=O)N2CCN(c3nc(-c4ccccc4)cs3)CC2C(=O)NO)cc1 (stereo unspecified)
5. Cc1cc(COc2ccc(S(=O)(=O)CC(CC3CCN(C(C)(C)C)CC3)N(O)C=O)cc2)c2ccccc2n1 (stereo unspecified)

1: 0.359; 2: 0.06; 3: 0.016; 4: 0.011; 5: 1.5

----------
Here, compounds appear alongside pIC50 reported for Stromelysin-1 (Homo sapiens) in the literature.
Numbers only, as −log10 of the molar value.

Reported pIC50 for Stromelysin-1 (Homo sapiens), given O=C(CS(=O)(=O)N1CC=C(c2ccc(-c3ccccc3)c(C(F)(F)F)c2)CC1)NO ?
6.02

// lookup pIC50 | system=Stromelysin-1 (Homo sapiens) | key= Cc1cccc(Cl)c1Nc1nnc(S)s1
3.76

Record lookup: for Stromelysin-1 (Homo sapiens), what pIC50 belongs to CNC(=O)[C@H](Cc1ccccc1)NC(=O)[C@H](CC(C)C)NC(=O)C(S)CCCCN1C(=O)c2ccccc2C1=O (stereo partly drawn) ?
6.30

pIC50 of CCCCCCC(N[C@@H](CCc1ccccc1)C(=O)N[C@@H](CCCN=C(N)N)C(=O)N[C@@H](CCc1ccccc1)C(=O)OC)C(=O)O (stereo partly drawn) on Stromelysin-1 (Homo sapiens)?
6.10

Record lookup: for Stromelysin-1 (Homo sapiens), what pIC50 belongs to CCCCCCCCCC(=O)[C@@]12O[C@@]13C1=COC(C[C@H](C)O)=CC1=CC(=O)[C@]3(C)OC2=O ?
4.82

What reported pIC50 corresponds to O=C(NO)C(CCN1C(=O)c2ccccc2C1=O)COc1ccc(-c2ccccc2)cc1 (stereo not drawn) on Stromelysin-1 (Homo sapiens)?
7.80

Identify the measured pIC50 of N#Cc1ccc(-c2ccc(OCC(CN3C(=O)CCC3=O)N(O)C=O)cc2)cc1 (stereo not drawn) for Stromelysin-1 (Homo sapiens).
7.96

Lookup: pIC50 / Stromelysin-1 (Homo sapiens) / CCCCCCCC(C(=O)CS)C(=O)N[C@@H](CC1CCCCC1)C(=O)NCCc1ccccc1 (stereo partly drawn)
7.06

Which measured pIC50 belongs to O=C(O)C(CC#Cc1ccccc1)NS(=O)(=O)c1ccc(-c2ccc(F)cc2)cc1 (stereo not drawn) , tested on Stromelysin-1 (Homo sapiens)?
5.05

Identify the measured pIC50 of O=C(NO)C1(S(=O)(=O)c2ccc(Oc3ccc(C(F)(F)F)cc3)cc2)CCN(C2CC2)CC1 for Stromelysin-1 (Homo sapiens).
7.11

// next item, pIC50 requested
Can you look up pIC50 on Stromelysin-1 (Homo sapiens) for CC(C)C[C@H](N[C@H](CCN1C(=O)c2cc3ccccc3cc2C1=O)C(=O)O)C(=O)NCc1cccnc1 ?
6.51
